tested on: THRa:RXRa (NR concentration 90 nM, RXRa partner concentration 90 nM); assay: PBM binding z-score (relative to random genomic background probes); higher = stronger binding; sequences stand for … in GC…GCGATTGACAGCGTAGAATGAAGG
Decide by PBM binding z-score: equal to or exceeding 1 means Criterion met, less means Criterion not met.

1. AGAATGAGTTTACCAAAGATCAGGGAAACGCTTG | Criterion not met
2. CAAACTAGGTCACCGGAAGGCCAAAGTCCGCATG | Criterion met
3. GCTTACGGGTCAAAGGTTATTGCATGAATAGAAT | Criterion met
4. ATCGAAAGCTCGTGAGGTGAGTATACAGAAAGGC | Criterion met
5. TATACAGGGTCAAAGGCCAGAGTGCGAATGTCGA | Criterion met
6. TCACATAGGTAAATGCTAGGTGAAAGTCCGATCT | Criterion met
7. TCATATAGGTAAACAGGTAAAAGTCCGTAAGTTA | Criterion not met
8. AATACAGGGTTACTAGGCCAGAGTAGGTACGAAT | Criterion met
9. GATACAGGGTCAAGGCAAGAGTACGCGTATTGAT | Criterion met
10. TAGCCTAGGTCATGGCCCAGTATACCACGCGAAC | Criterion met
11. ACAGACAGGTGAGTGAAGTTAACTCAGCTGGACG | Criterion not met
12. CCTTACGGGTCATGAGGTTATAGCACGACGAGCG | Criterion met

====

test system: PPARg:RXRa 270nM:90nM, anti-RXR (NR concentration 270 nM, RXRa partner concentration 90 nM); test: PBM binding z-score (relative to random genomic background probes); higher = stronger binding; sequences stand for … in GC…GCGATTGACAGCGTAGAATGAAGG
List of PBM binding z-score values.
measured-parameter: PBM binding z-score

1) CGTCAAAGTTCAAGGTAACGTACCAGAAAGCAGC | 5.05
2) ATATATAGGTTATCGGGTCATTCAGTTTGCGCAT | 6.52
3) GTTTGTAGATCAAGGTTAAGAAAGACTAAGCTAA | 2.88
4) TCCTGTAGATCAAAGGTTAAGAAAGCCGAAGCCT | 7.55
5) ACTAGCAGGCCAAGTTTGGGTAACTCAAACAAAG | -0.541
6) ACAGACAGGTGATGAAGGTAGCTCAGGCTATCAT | -0.247
7) CCTAGTTGGTCAGGAGGTCACACCCCGGATATGA | 3.57
8) ACAGACAGGTGATGAAGTTAACTCAGGCTATCAT | -0.0899
9) GGAACGAGGGCAAGTTGTTAGCAGAGTTTGATGG | 1.04
10) ATACGTAGGTTAGCTGGGGTCATTCAGACTAGGC | 2.91
11) ATCGAAAGTTCGAAGGTGAGTATACCCACCCGAA | 1.17
12) TCTATTAGTTAATTAGGGCAACCGAAACAGCGGA | 2.94
13) CGTCAAAGTTCAAAGTAACGTAACAGAAAGCAGC | 5.36
14) CCTACTGGGCCAAAGTCATTGATCAGTCAAAGCA | 2.53
15) CGTCAAAGTGCAAGGTAACGTAACAGAAAGCAGC | 0.593
16) TCTTGTAGATCAGCAGGTTCAGAAAGCTGGCCAA | 1.1
17) ATCTCTTGGTAAAAGTTCAGTGAATCCCGAGGAT | 4.15
18) CAAACTAGATCACCGGAAGGTCAAAGTCCGCATG | 2.62
19) GCTATTAGTCGAAAGGGCAACCGAATGATTCTCG | 4.04
20) GCTTGTAGATCAACGTTAAGAAAGACTAAGCTAA | -0.0429
21) TCATATAGGTAATATAGGTGAAAGTCGGCATCTA | 3.65
22) ACTCGGAGGACAAAGGTCAGAGATACGCCAGTGA | 6.85
23) CCTAGTTGGTCAGAAGGTCACACACCGGATATGA | 4.25
24) AGAATGAGATTAAGATCAGGGAAACAGAATACAT | -0.304
25) TCATATGGGTAAAAGGTGAAAGTCGGTGTGGTAA | 7.44
26) GGAACGAAGGCATTCGAGTTGATAGCATGGCGAT | -0.825
27) AGAATTAGGTTACCAAAGATCAGGGAAACGCTTG | 3.45
28) TCTGCTAGGTCAGTTGGTAAGCTAACGAGCTGCC | 1.28
29) GTATCAAGGTGAATAGGTCGTTGATGAGTAGGCG | 2.76
30) GGAACGAGGGCATTCGAGTTGATAGAATGGCGAT | 0.758
31) TCGAGTAGGTTCCCAATGGGGCATTCAGCTTTCT | 0.361
32) GCAGACAGGTGCAACGCAGGTAACTCAGGGTGGC | -0.844
33) ACTAGCAGGCCAAGTTTGGTTCACTCAAACAAAG | -0.162
34) TCTTGTAGATCAAAGGTTAAGATAGCCGAAGCCT | 8.06
35) CCGCGGAGGACAGAAGGTCAGAGCTGTCCGCTTT | 0.596
36) CTACCCAGGTGAACAAGGTCGTTGATTACTATTC | 0.672
37) GCAGACAGATGAAACGCAGGTAACTCAGGGTGGC | -0.641
38) CCTAGTTGGTCAAGGTCACACTCGCTATAGGTAC | 3.32
39) CGAACTAGGTCATCCAGGACAGCGAATACATTGA | 6.41
40) CCTATTAGTTGAGCATAAGGGCAACCGAAGCTCG | 0.305
41) CTACTAAGGTGAACAAGGTCGTTGATTACTATTC | 1.99
42) TCTTGTAGAGCAAAGGTTAAGAAAGCCGAAGCCT | 8.58
43) CGTCCAAGGTCAAAGGTCAGTTAAGAGATGACGG | 8.31
44) ATCTCTAGGTCACAAGTTCAGTGAAAGAGAGGAC | 5.95
45) ATCGAAAGGTCGACGAGCTGAGTATACACCGTTT | 2.87
46) GCGACTGGGGCATCTGCAGGTTACCATAACTTAA | 1.01
47) AACTCTAGGTAAAAGTTCAGTGAATCCCGAGGAT | 7.64
48) TAGCCTAGGTCATTGCGCCAGTATAGTACGCATC | 2.49
49) CCAGACAGGTGAAAGGTAGCTCAGTCTGGTACGC | 4.68
50) ACTATTAGTTGAGACGGGGGCAACCGATAGGTTG | 2.35
51) AGAATGAGGTTAAGAACAGGGAAACAGAATACAT | 2.05
